# koff listing for each entry below
# TESTED_TARGET: T1, human OPGbp [143-317] (human, UniProt O14788 143-317)
# T1 construct: also called OPGL
# T1 sequence (looked up): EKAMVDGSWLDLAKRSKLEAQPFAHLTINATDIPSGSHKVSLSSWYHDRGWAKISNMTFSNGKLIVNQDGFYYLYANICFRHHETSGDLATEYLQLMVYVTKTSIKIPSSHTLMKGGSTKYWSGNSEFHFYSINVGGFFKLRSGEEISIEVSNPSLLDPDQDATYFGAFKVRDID
# METHOD_SUMMARY: SPR (BIAcore), immobilized OPGbp [143-317]

Past entries and their recorded results:
| BINDER | koff |
| --- | --- |
| “AT” antibody variant S96P (heavy chain CDR3) (antibody, name in Kabat numbering, V domains shown, not shown: human IgG1 CH1, hinge, CH2 and CH3) VH: QVQLVQSGAEVRKPGASVKVSCKASGYDFSNYAIHWVRQAPGQRLEWMGWINAGNGNTKFSQKFQGRITVTRDTAASTAYMELRSLRSEDTAVYYCARDPSNMVRGIIIAYYFDYWGQGTLVTVSS VL: EIVMTQSPSSLSASVGDRVTITCRASQSISRYLNWYQLKPGKAPRLLIYGASSLQSGVPSRFSGSGSGAEFTLTISSLQPEDIATYYCQHTRAFGQGTKVEIKR | 0.00188 s⁻¹ |
| “AT” antibody variant S96T (heavy chain CDR3) (antibody, name in Kabat numbering, V domains shown, not shown: human IgG1 CH1, hinge, CH2 and CH3) VH: QVQLVQSGAEVRKPGASVKVSCKASGYDFSNYAIHWVRQAPGQRLEWMGWINAGNGNTKFSQKFQGRITVTRDTAASTAYMELRSLRSEDTAVYYCARDTSNMVRGIIIAYYFDYWGQGTLVTVSS VL: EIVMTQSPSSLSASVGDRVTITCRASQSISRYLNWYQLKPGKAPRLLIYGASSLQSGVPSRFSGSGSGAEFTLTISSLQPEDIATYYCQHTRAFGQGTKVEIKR | 0.00167 s⁻¹ |
| “AT” antibody variant S96H (heavy chain CDR3) (antibody, name in Kabat numbering, V domains shown, not shown: human IgG1 CH1, hinge, CH2 and CH3) VH: QVQLVQSGAEVRKPGASVKVSCKASGYDFSNYAIHWVRQAPGQRLEWMGWINAGNGNTKFSQKFQGRITVTRDTAASTAYMELRSLRSEDTAVYYCARDHSNMVRGIIIAYYFDYWGQGTLVTVSS VL: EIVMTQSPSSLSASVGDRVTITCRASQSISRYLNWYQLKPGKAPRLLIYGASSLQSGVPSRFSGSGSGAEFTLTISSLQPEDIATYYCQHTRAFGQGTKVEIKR | 0.00764 s⁻¹ |
| “AT” antibody variant S96D (heavy chain CDR3) (antibody, name in Kabat numbering, V domains shown, not shown: human IgG1 CH1, hinge, CH2 and CH3) VH: QVQLVQSGAEVRKPGASVKVSCKASGYDFSNYAIHWVRQAPGQRLEWMGWINAGNGNTKFSQKFQGRITVTRDTAASTAYMELRSLRSEDTAVYYCARDDSNMVRGIIIAYYFDYWGQGTLVTVSS VL: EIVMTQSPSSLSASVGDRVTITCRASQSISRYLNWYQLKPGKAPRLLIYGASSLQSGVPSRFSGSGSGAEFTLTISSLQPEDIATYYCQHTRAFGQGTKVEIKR | 0.00118 s⁻¹ |
| “AT” antibody variant S96E (heavy chain CDR3) (antibody, name in Kabat numbering, V domains shown, not shown: human IgG1 CH1, hinge, CH2 and CH3) VH: QVQLVQSGAEVRKPGASVKVSCKASGYDFSNYAIHWVRQAPGQRLEWMGWINAGNGNTKFSQKFQGRITVTRDTAASTAYMELRSLRSEDTAVYYCARDESNMVRGIIIAYYFDYWGQGTLVTVSS VL: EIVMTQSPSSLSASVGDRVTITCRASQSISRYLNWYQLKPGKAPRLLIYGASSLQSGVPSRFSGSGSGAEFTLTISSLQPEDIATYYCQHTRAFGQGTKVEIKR | 0.000901 s⁻¹ |

### Prompt Please list koff recorded for the binder “AT” antibody variant S96W (heavy chain CDR3) (antibody, name in Kabat numbering, V domains shown, not shown: human IgG1 CH1, hinge, CH2 and CH3) VH: QVQLVQSGAEVRKPGASVKVSCKASGYDFSNYAIHWVRQAPGQRLEWMGWINAGNGNTKFSQKFQGRITVTRDTAASTAYMELRSLRSEDTAVYYCARDWSNMVRGIIIAYYFDYWGQGTLVTVSS VL: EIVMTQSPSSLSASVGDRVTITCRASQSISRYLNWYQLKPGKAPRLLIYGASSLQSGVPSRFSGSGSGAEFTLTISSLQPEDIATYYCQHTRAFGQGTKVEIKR
### Response 0.00203 s⁻¹

### Prompt Please list koff recorded for the binder “AT” antibody variant S96R (heavy chain CDR3) (antibody, name in Kabat numbering, V domains shown, not shown: human IgG1 CH1, hinge, CH2 and CH3) VH: QVQLVQSGAEVRKPGASVKVSCKASGYDFSNYAIHWVRQAPGQRLEWMGWINAGNGNTKFSQKFQGRITVTRDTAASTAYMELRSLRSEDTAVYYCARDRSNMVRGIIIAYYFDYWGQGTLVTVSS VL: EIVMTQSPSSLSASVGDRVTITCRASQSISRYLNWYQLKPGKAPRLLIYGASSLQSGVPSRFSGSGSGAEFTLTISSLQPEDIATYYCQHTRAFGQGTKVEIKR
### Response 0.00262 s⁻¹

### Prompt Please list koff recorded for the binder “AT” antibody variant S96F (heavy chain CDR3) (antibody, name in Kabat numbering, V domains shown, not shown: human IgG1 CH1, hinge, CH2 and CH3) VH: QVQLVQSGAEVRKPGASVKVSCKASGYDFSNYAIHWVRQAPGQRLEWMGWINAGNGNTKFSQKFQGRITVTRDTAASTAYMELRSLRSEDTAVYYCARDFSNMVRGIIIAYYFDYWGQGTLVTVSS VL: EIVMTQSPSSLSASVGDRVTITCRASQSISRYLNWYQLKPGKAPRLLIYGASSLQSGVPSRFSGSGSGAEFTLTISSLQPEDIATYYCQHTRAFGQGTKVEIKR
### Response 0.00268 s⁻¹

### Prompt Please list koff recorded for the binder “AT” antibody variant S96M (heavy chain CDR3) (antibody, name in Kabat numbering, V domains shown, not shown: human IgG1 CH1, hinge, CH2 and CH3) VH: QVQLVQSGAEVRKPGASVKVSCKASGYDFSNYAIHWVRQAPGQRLEWMGWINAGNGNTKFSQKFQGRITVTRDTAASTAYMELRSLRSEDTAVYYCARDMSNMVRGIIIAYYFDYWGQGTLVTVSS VL: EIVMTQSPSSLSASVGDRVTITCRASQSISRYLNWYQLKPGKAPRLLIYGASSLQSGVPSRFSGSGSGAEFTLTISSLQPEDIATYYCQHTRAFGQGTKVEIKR
### Response 0.0087 s⁻¹

### Prompt Please list koff recorded for the binder “AT” antibody variant S96L (heavy chain CDR3) (antibody, name in Kabat numbering, V domains shown, not shown: human IgG1 CH1, hinge, CH2 and CH3) VH: QVQLVQSGAEVRKPGASVKVSCKASGYDFSNYAIHWVRQAPGQRLEWMGWINAGNGNTKFSQKFQGRITVTRDTAASTAYMELRSLRSEDTAVYYCARDLSNMVRGIIIAYYFDYWGQGTLVTVSS VL: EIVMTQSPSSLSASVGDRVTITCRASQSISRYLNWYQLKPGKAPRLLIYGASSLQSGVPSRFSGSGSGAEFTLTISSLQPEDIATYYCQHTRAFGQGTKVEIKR
### Response 0.00175 s⁻¹

The reported numbers originate from patent US20140147444A1.
